B1: PTPLAD1 (parent)
chain: YINFRHLYKQRRRRYGQKKKKIH

variants of: B1; assay: protein stability index of a GFP-peptide fusion (GPS, HEK-293T) (PSI 1-6); higher = more stable; conditions: c terminus: native;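 also: lentivirally expressed fusions sorted by FACS into six bins by GFP to DsRed ratio, PSI derived from sequencing read proportions per bin multiplied by bin number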
Decide using protein stability index: a value greater than or equal to 2 is TRUE, a smaller one is FALSE.

Would you please look over these solved cases?
                 primary_sequence  label_class
0   YINFHHLYKQRRRRYGQKKKKIH [R5H]        FALSE
1  YINFRHLYKQRRRRYGQKFKKIH [K19F]         TRUE

Prompt: Is it the case that YINFRHLYKQRRRRYGQKLKKIH [K19L] has protein stability index reaching or exceeding 2?
Completion: TRUE

Prompt: Now this one: YINFRHLYKTRRRRYGQKKKKIH [Q10T]
Completion: TRUE

Prompt: Now this one: YINFRHLYKQRRRRYNQKKKKIH [G16N]
Completion: FALSE

Prompt: Now this one: YINFRHLYKQRRRRNGQKKKKIH [Y15N]
Completion: FALSE
